target.entity: GST tagged LXRalpha LBD (ligand binding domain) (Homo sapiens, UniProt Q13133)
Construct: purchased Invitrogen pv4655
Sequence (Q13133 209-447 limits assumed): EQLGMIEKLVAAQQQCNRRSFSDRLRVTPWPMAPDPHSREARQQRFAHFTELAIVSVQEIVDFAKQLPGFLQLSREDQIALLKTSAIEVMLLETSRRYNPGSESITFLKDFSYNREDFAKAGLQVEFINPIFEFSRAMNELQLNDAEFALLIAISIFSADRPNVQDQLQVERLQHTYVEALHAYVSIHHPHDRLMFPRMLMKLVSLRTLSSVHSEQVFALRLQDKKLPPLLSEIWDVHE
experimental.protocol: LanthaScreen TR-FRET Liver X Receptor Coactivator Assay, LXR alpha-LBD
Format: biochemical
protocol.conditions: activity at max dose (efficacy), relative to reference T0901317; read-out: LXR alpha act @ max dose (%)
Excerpt: […]
Note: every record was labeled by where its Emax sits among small value (below 30%), mid value (30% to below 50%), large value (50% or more)

Request: Category lookup for the molecule C=CCC(O)(C(=O)N1CCC(C2CCN(c3ccc(C(=O)N(C)C)c(Cl)c3)CC2)CC1)C(F)(F)F (centres unmarked) [Example A-57]
Result: large value

Request: Band assignment needed for Cc1nnc(CN(C)C(=O)c2ccc(N3CCC(C4CCN(C(=O)[C@](O)(c5ccccc5)C(F)(F)F)CC4)CC3)cc2Cl)o1 [Example E-47] please.
Result: small value

Request: Just checking, what class would you give CC(C)C(O)(C(=O)N1CCC(C2CCN(c3ccc(C(=O)N(C)C)c(Cl)c3)CC2)CC1)C1CC1 (centres unmarked) [Example A-110] here?
Result: large value

Request: Returns: class label. Input: CC(C)(C)OC(=O)N1CCC(C2CCN(c3ccc(C(C)(C)O)c(Cl)c3)CC2)CC1 [Example E-69]
Result: large value

Request: GET /class?item= CN(C)C(=O)c1ccc(N2CCC(C3CCN(C(=O)C(C)(O)C(F)(F)F)CC3)CC2)nc1Cl (centres unmarked) [Example B-11]
Result: mid value

Request: For COc1cccc(C2(C(=O)N3CCC(C4CCN(c5ccc(C(=O)N(C)C)c(Cl)c5)CC4)CC3)CCC2)c1 [Example A-93] , which Emax bin applies?
Result: small value

Request: Sort into band: Cc1ccccc1S(=O)(=O)N1CCC(C2CCN(c3ccc(C(=O)N(C)C)c(Cl)c3)CC2)CC1 [Example A-100]
Result: mid value

Request: Category lookup for the molecule CN(CCO)C(=O)c1ccc(N2CCC(C3CCN(C(=O)[C@](O)(c4ccccc4)C(F)(F)F)CC3)CC2)cc1Cl [Example E-58]
Result: mid value

Request: Using the reported Emax, which band applies to O=C(c1ccc(N2CCC(C3CCN(C(=O)[C@](O)(c4ccccc4)C(F)(F)F)CC3)CC2)cc1Cl)N1CC(c2cccnc2)C1 [Example E-43] ?
Result: small value

Request: Which band does CN(C)C(=O)c1ccc(N2CCC(C3CCN(C(=O)[C@@](O)(c4ccccc4)C(F)(F)C(F)(F)F)CC3)CC2)nc1Cl (single isomer, unassigned) [Example B-17] fall in?
Result: mid value

Request: Please classify: COC(=O)c1ccc(N2CCC(C3CCN(C(=O)c4c(F)cccc4F)CC3)CC2)cc1Cl [Example E-2]
Result: small value

Request: Consider CC(C)C(O)(C(=O)N1CCC(C2CCN(c3cc(F)c(C(=O)N(C)C)c(F)c3)CC2)CC1)C(F)(F)F [Example D-1] . To which Emax class does it belong?
Result: mid value

Request: Where would Cc1cccc(C(O)(C(=O)N2CCC(C3CCN(c4ccc(C(=O)N(C)C)c(Cl)c4)CC3)CC2)C(F)(F)F)c1 (centres unmarked) [Example A-68] land among the classes by reported Emax?
Result: small value

Request: Input CN(C)C(=O)c1ccc(N2CCC(C3CCN(C(=O)OC(C)(C)C)CC3)CC2)nc1Cl [Example B-1] ; output its category
Result: large value
